target under test: PAR1 (Homo sapiens (Human))
Sequence (P25116 22-425): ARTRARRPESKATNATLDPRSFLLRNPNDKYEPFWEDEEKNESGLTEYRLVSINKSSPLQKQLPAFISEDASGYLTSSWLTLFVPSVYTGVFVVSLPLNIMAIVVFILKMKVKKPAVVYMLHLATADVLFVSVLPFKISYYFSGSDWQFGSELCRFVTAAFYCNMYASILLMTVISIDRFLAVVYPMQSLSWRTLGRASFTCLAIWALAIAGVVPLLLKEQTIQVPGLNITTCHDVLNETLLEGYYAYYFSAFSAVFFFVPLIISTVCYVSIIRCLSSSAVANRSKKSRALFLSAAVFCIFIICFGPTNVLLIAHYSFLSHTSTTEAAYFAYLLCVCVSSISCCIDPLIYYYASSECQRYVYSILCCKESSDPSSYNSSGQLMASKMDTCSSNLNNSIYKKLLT
experimental details: PAR1 binding test (radioligand displacement, membrane preparation)
run parameters: human PAR1 expressed in High Five insect cell membranes; radioligand 20 nM; read-out: Inhibition of binding IC50
Description: The synthesized substances were examined in a PAR1 binding test. […] The substances were preincubated with the membrane at room temperature for 15 minutes, then the radioligand (ALA-(para-F-Phe)-Arg-ChA-homoArg-(3,4-^3H-Tyr)-NH2; approx. 40 Ci/mMol) was added. […] The plate was then dried overnight, 100 μl of scintillator per well were added, and the plate was analyzed after 6 hours in a Wallac MicroBeta (from PerkinElmer) liquid scintillation counter. […]
pIC50: −log10 of the molar value. Where a name gives a salt, the structure may show the parent alone.
metric name: pIC50

// known answers, use as guide
[
  {
    "compound": "CCNC(=O)c1nn2/c(=N/C)n(CC(=O)c3cc(OCCO)c(OC)c(C(C)(C)C)c3)nc2c(C)c1C [Example 207, hydrochloride]",
    "pIC50": 6.76
  },
  {
    "compound": "COc1c(N2CCOCC2)cc(C(=O)Cn2nc3ccc(Cl)nn3c2=N)cc1C(C)(C)C [Example 56, trifluoroacetic acid salt]",
    "pIC50": 4.62
  }
]

(P) CCOc1cc(C)c2nn(CC(=O)c3cc(OC(COC)COC)cc(C(C)(C)C)c3)c(=N)n2n1 [Example 127, hydrochloride]
(Q) CCOc1nn2c(=N)n(CC(=O)c3cc(OCCO)cc(C(C)(C)C)c3)nc2c(CC)c1C [Example 221, hydrochloride]
(R) CCOc1cc(C(C)(C)O)c2nn(CC(=O)c3cc(OCCCO)c(OC)c(C(C)(C)C)c3)c(=N)n2n1 [Example 168, hydrochloride]
Give the ascending ranking of the items by reported pIC50. // respond by listing labels in the order requested
P, R, Q
